assay explanation: Photostability test, visible light (1.2 Mlux·hr) exposure
recorded conditions: Table 11 under heading Visible Light (1.2 Mlux-hr) Exposure Test
Counter-ions that a name gives are not always drawn.
measured endpoint: After (%) Degradant
I'd appreciate it if you included the unit after the number.

Below: 8 compounds and their reported After (%) Degradant.
Cc1nc2c(O[C@H]3CCOc4cc(F)cc(F)c43)cc(C(=O)N(C)C)cc2[nH]1 [Hydrobromide Salt]    1.956%
Cc1nc2c(O[C@H]3CCOc4cc(F)cc(F)c43)cc(C(=O)N(C)C)cc2[nH]1 [Methanesulfonate Salt (Amorphous Form)]    0.438%
Cc1nc2c(O[C@H]3CCOc4cc(F)cc(F)c43)cc(C(=O)N(C)C)cc2[nH]1 [Hemisalicylate Salt]    0.245%
Cc1nc2c(O[C@H]3CCOc4cc(F)cc(F)c43)cc(C(=O)N(C)C)cc2[nH]1 [Malate Salt]    0.035%
Cc1nc2c(O[C@H]3CCOc4cc(F)cc(F)c43)cc(C(=O)N(C)C)cc2[nH]1 [Phosphate Salt]    0.140%
Cc1nc2c(O[C@H]3CCOc4cc(F)cc(F)c43)cc(C(=O)N(C)C)cc2[nH]1 [Sulfate Salt]    2.273%
Cc1nc2c(O[C@H]3CCOc4cc(F)cc(F)c43)cc(C(=O)N(C)C)cc2[nH]1 [Methanesulfonate Salt (Crystalline Form)]    0.208%
Cc1nc2c(O[C@H]3CCOc4cc(F)cc(F)c43)cc(C(=O)N(C)C)cc2[nH]1 [Pidolate Salt]    0.068%

For the next question, use this compound.
Measured After (%) Degradant of Cc1nc2c(O[C@H]3CCOc4cc(F)cc(F)c43)cc(C(=O)N(C)C)cc2[nH]1 [Maleate Salt] : 0.033%

###

assay explanation: Solid-state accelerated stability test (40 ± 2 °C/RH 75 ± 5 %)
recorded conditions: 40 ± 2 °C / RH 75 ± 5 %, 1 month
Structures can show the parent of a compound that is named as a salt.
measured endpoint: After 1 Month (%) Total Related substances
Give a bare numeral; the unit % is implied.

Below: 6 compounds and their reported After 1 Month (%) Total Related substances.
Cc1nc2c(O[C@H]3CCOc4cc(F)cc(F)c43)cc(C(=O)N(C)C)cc2[nH]1 [Hydrochloride Salt (Amorphous Form)]    0.467
Cc1nc2c(O[C@H]3CCOc4cc(F)cc(F)c43)cc(C(=O)N(C)C)cc2[nH]1 [Methanesulfonate Salt (Amorphous Form)]    1.653
Cc1nc2c(O[C@H]3CCOc4cc(F)cc(F)c43)cc(C(=O)N(C)C)cc2[nH]1 [Hydrobromide Salt]    2.519
Cc1nc2c(O[C@H]3CCOc4cc(F)cc(F)c43)cc(C(=O)N(C)C)cc2[nH]1 [Pidolate Salt]    0.146
Cc1nc2c(O[C@H]3CCOc4cc(F)cc(F)c43)cc(C(=O)N(C)C)cc2[nH]1 [Hemisalicylate Salt]    0.208
Cc1nc2c(O[C@H]3CCOc4cc(F)cc(F)c43)cc(C(=O)N(C)C)cc2[nH]1 [Maleate Salt]    0.679

For the next question, use this compound.
Measured After 1 Month (%) Total Related substances of Cc1nc2c(O[C@H]3CCOc4cc(F)cc(F)c43)cc(C(=O)N(C)C)cc2[nH]1 [Malate Salt] : 0.236
